- Tested on: H460 (wtp53)
- assayComment: sulforhodamine B (SRB) growth inhibition assay
- Format: cell-based
- measurementParameters: Homo sapiens, NCI-H460, H460, 48 hours incubation
attributeMeasured: IC50 (nM)
Numbers only, in nM.

GET /values?readout=IC50&system=H460 (wtp53)&item= Cc1c(CO)c(CO)c2n1[C@@H](c1ccccc1)SC2 1800

###

- System: Huh-7 (mutp53 Y220C)
- assayComment: sulforhodamine B (SRB) growth inhibition assay
- Assay type: cell-based
- measurementParameters: Homo sapiens, Huh-7, 48 hours incubation
attributeMeasured: IC50 (µM)
One number for each entry, in µM.

Which IC50 is reported for this compound? Cc1c(CO)c(CO)c2n1[C@@H](c1ccccc1)SC2 6.43

###

- Tested on: HCT116 p53+/+
- assayComment: sulforhodamine B (SRB) growth inhibition assay
- Assay type: cell-based, human
- measurementParameters: HCT116 p53+/+, 48 hours incubation, SRB assay
- Experimental: Cancer cells were plated at 5.0×10^3 cells/well in 96-well plates and incubated for 24 hours. Cells were then exposed to serial dilutions of MANIO, CP-31398 or PRIMA-1MET (from 0.3 to 80 μM). The effect of the compounds was analyzed following 48 hours incubation, using the sulforhodamine B (SRB) assay. […] Cancer cells were plated in 96-well plates and incubated for 24 hours. […] The effect of the compound was analyzed following 48 hours incubation, using the sulforhodamine B (SRB) assay. […]
attributeMeasured: IC50
Form entry: enter the amount, then its unit.

| compound | targetOfAssay | recordedMeasurement |
| --- | --- | --- |
| COc1ccc(/C=C/c2nc(NCCCN(C)C)c3ccccc3n2)cc1 [CP-31398, reference compound] | HCT116 p53+/+ | 3.4 µM |

Kindly review the next compound as well.
GET /values?readout=IC50&system=HCT116 p53+/+&item= COCC1(CO)C(=O)C2CCN1CC2 (centres unmarked) [PRIMA-1^MET, reference compound] 19.9 µM
